Taken from patent US20240398757A1.

- MEASURED TARGET: SARS2 protease (Severe acute respiratory syndrome coronavirus 2)
- Construct: SARS2 protease was added to a final concentration of 30 nM
- METHOD: SARS-CoV-2 protease inhibition assay (SARS2 FRET protease assay)
- Format: biochemical
- EXPERIMENTAL SETUP: IC50 (μM), SARS2 protease 30 nM, peptide substrate 1.3 μM, 120 minutes at 37° C., compounds 20 μM to 0.075 nM
READOUT TYPE: IC50 (nM)
One number for each entry, in nM.

COMPOUND: O=C(N[C@@H](CC1CCCCC1)C(=O)N[C@@H](C[C@@H]1CCNC1=O)C(=O)C(=O)NC1CC1)O[C@H](c1ccccc1)C(F)(F)c1cccc(Cl)c1 [Compound A175]
IC50 [nM]: 1360
--
COMPOUND: O=C(N[C@@H](CC1CCCCC1)C(=O)N[C@@H](C[C@@H]1CCNC1=O)C(O)S(=O)(=O)O)O[C@H](c1ccccc1)C(F)(F)c1cccc(Cl)c1 (stereo partly drawn) [Compound A135]
IC50 [nM]: 2.2
--
COMPOUND: CCCC[C@H](NC(=O)OC(c1ccccc1)C(F)(F)c1cccc(Cl)c1)C(=O)NC(C)(C=O)CC1CCNC1=O (stereo partly drawn) [Compound A192]
IC50 [nM]: 978
--
COMPOUND: CCCC[C@H](NC(=O)O[C@@H](c1cccc(F)c1)C(F)(F)c1cccc(F)c1)C(=O)N[C@H](C=O)C[C@@H]1CCNC1=O [Compound A217]
IC50 [nM]: 10

Lookup: Please report the recorded IC50 for CC(C)C[C@H](NC(=O)O[C@H](c1cccc(Cl)c1)C(C)(C)c1cccc(Cl)c1)C(=O)N[C@@H](C[C@@H]1CCNC1=O)C(=O)C(=O)NC1CC1 [Compound A147] .
Found: 558
